settings: in ethyl acetate, 303.15 K
METRIC NAME: solubility (mole fraction)
// return a plain number; no unit text

Before answering, review these 4 worked examples.
{"SMILES DATA": "COc1cc(-c2cc(-c3ccc(Cl)cc3)[nH]c(=O)c2C#N)ccc1O", "solubility (mole fraction)": 0.00132}
{"SMILES DATA": "COc1cc(-c2cc(-c3ccc(O)cc3)[nH]c(=O)c2C#N)ccc1O", "solubility (mole fraction)": 0.00111}
{"SMILES DATA": "COc1cc(-c2cc(-c3ccc(Br)cc3)[nH]c(=O)c2C#N)ccc1O", "solubility (mole fraction)": 0.00116}
{"SMILES DATA": "COc1cc(-c2cc(-c3ccc(F)cc3)[nH]c(=O)c2C#N)ccc1O", "solubility (mole fraction)": 0.00142}

// moving on: another record for solubility (mole fraction)
Returns the measured solubility (mole fraction) for the input compound. Input: "COc1ccc(-c2cc(-c3ccc(O)c(OC)c3)c(C#N)c(=O)[nH]2)cc1"
0.00115
